Cited source for all entries: patent US20120009181A1

# target-or-test-system: human folate receptor 1 (FOLR1) (human)
# Sequence (chain, as listed by the source limits assumed): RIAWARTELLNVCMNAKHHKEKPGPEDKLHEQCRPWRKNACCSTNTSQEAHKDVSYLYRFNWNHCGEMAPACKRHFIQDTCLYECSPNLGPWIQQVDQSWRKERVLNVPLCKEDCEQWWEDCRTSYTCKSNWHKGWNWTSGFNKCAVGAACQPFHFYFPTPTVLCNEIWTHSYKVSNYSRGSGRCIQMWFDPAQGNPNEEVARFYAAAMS
# protocol: column head 'Apparent affinity (nM)'; method not restated (analyzed as described above: flow cytometry on FOLR1-expressing cells)
property: pKd
// pKd is dimensionless: -log10 of concentration (M)

Worked examples follow.
query: pKd for huFR1-48 (antibody, V domains shown) VH: QVQLVQSGAEVAKPGASVKLSCKASGYTFTNYWMQWIKQRPGQGLEWIGAIYPGNGDSRYTQKFQGKATLTADKSSSTAYMQVSSLTSEDSAVYYCARRDGNYAAYWGQGTLVTVSA VL: DIQMTQSPSSLSVSVGERVTITCRASENIYSNLAWYQQKPGKSPKLLVYAATNLADGVPSRFSGSESGTDYSLKINSLQPEDFGSYYCQHFWASPYTFGQGTKLEIKR ?
result: 9.89

query: # query: pKd of entry huFR1-65 (antibody, V domains shown) VH: QVQLVQSGAEVAKPGASVKMSCKASGYTFTSYTMHWVKQRPGQGLAWIGYINPISGYTNYNQKFQGKATLTADKSSSTAYMQLNSLTSEDSAVYYCASGGAYGRKPMDYWGQGTSVTVSS VL: EIVMTQSPATMSTSPGDRVSVTCKASQNVGPNVAWYQQKPGQSPRALIYSASYRYSGVPARFTGSGSGTDFTLTISNMQSEDLAEYFCQQYNSYPYTFGQGTKLEIKR
result: 9.82

query: Using the record for huFR1-49 (antibody, V domains shown) VH: QVQLQQSGAVVAKPGASVKMSCKASGYTFTNYWMYWIKQRPGQGLELIGAIYPGNSDTTYNQKFQGKATLTAVTSANTVYMEVSSLTSEDSAVYYCTKRHDYGAMDYWGQGTSVTVSS VL: DIQMTQSPSSLSVSVGERVTITCRASENIYTNLAWYQQKPGKSPKLLVYTASNLADGVPSRFSGSGSGTDYSLKINSLQPEDFGTYYCQHFWVSPYTFGQGTKLEIKR , report its pKd.
result: 10.10

Continuing:
query: Which pKd value belongs to huMov19 (antibody, V domains shown) VH: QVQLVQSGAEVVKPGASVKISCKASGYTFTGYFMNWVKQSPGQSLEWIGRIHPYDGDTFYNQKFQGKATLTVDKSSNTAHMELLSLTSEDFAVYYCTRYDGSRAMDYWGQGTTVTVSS VL: DIVLTQSPLSLAVSLGQPAIISCKASQSVSFAGTSLMHWYHQKPGQQPRLLIYRASNLEAGVPDRFSGSGSKTDFTLNISPVEAEDAATYYCQQSREYPYTFGGGTKLEIKR ?
result: 10.22

query: Find the recorded pKd belonging to huFR1-57 (antibody, V domains shown) VH: EVQLVESGGGLVQPGGSRRLSCAASGFTFSSFGMHWVRQAPGKGLEWVAYISSGSSTISYADSVKGRFTISRDNSKKTLLLQMTSLRAEDTAMYYCAREAYGSSMEYWGQGTLVTVSS VL: EIVLTQSPATLSVTPGDRVSLSCRASQNINNNLHWYQQKPGQSPRLLIKYVSQSVSGIPDRFSGSGSGTDFTLSISSVEPEDFGMYFCQQSNSWPHYTFGQGTKLEIKR and report it.
result: 9.85
